# study system: PARP2 FL E286R (human (Homo sapiens), UniProt Q9UGN5 1-583, E286R)
# Sequence (Q9UGN5 whole entry E286R): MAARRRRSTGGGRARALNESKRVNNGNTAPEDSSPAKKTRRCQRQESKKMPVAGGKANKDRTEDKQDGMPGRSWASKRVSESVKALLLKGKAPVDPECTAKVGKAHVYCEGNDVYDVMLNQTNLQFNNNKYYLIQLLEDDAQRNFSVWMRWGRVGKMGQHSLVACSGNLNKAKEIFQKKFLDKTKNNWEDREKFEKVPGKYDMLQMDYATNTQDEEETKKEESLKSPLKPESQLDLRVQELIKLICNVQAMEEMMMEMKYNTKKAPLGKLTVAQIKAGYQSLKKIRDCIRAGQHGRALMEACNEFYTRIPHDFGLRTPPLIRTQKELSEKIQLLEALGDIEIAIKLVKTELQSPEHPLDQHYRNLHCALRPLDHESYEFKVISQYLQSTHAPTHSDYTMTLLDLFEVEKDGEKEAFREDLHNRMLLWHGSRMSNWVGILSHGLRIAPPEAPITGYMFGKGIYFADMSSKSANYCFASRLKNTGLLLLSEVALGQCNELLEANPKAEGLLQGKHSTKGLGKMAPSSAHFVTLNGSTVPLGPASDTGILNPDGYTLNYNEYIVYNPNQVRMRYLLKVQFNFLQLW
# measurement notes: fluorescence polarization; mean and SD of 3 listed KDs (12.72, 25.07, 16.53); FP buffer, salt, pH and temperature not given (as in cited ref 17); crystallization: complex purified in 20 mM Hepes pH 7.5, 300 mM NaCl, 0.5 mM TCEP; crystals
# run conditions: protein: recombinant; tags: His-tag construct, TEV cleaved; label: fluorescein on internal T8 of strand 2; blunt, 20 bp
measurement label: Kd (nM)
The answer is to be given in nM; state only the numeric part.

Enquiry: Give its Kd value. Item: DNA-9 dsDNA (dsDNA, 5'-phosphate on strand 1) DNA 1: GACGCAACCCGGAGAACACA DNA 2: TGTGTTCTCCGGGTTGCGTC
Return: 18.1
